- testedOn: T1, human CCR8 (human, UniProt P51685 1-355)
- T1 construct: the assay field says which; also called hCCR8; huCCR8
- protocolDescription: flow cytometry, CHO-huCCR8.Gna15 cells, relative to rb.Ab5
- Description: Evaluation of CCR8 binding of the humanized variants with a hIgG1 Fc involved screening by flow cytometry, and comparing the relative EC₅₀ and MFI on human CCR8 CHO cells to the parental rabbit antibodies. […] Cells were washed twice with FACS buffer, and re-suspended in FACS buffer with propidium iodide (0.5 ug/ml) and analyzed with iQue3 (Sartorius).
endpoint: Relative EC50 (ratio)
Entry rule: numbers only, all in ratio.

Sure, the documented Relative EC50 for hu.Ab5.H1L4 (antibody, human IgG1, kappa, V domains shown) VH: EQQLLESGGGLVQPGGSLRLSCAVSGIDLSTYAMGWVRQAPGKGLEWIGLIHRSGRTYYATWAKGRFTISKDSSKTTVYLQMNSLRAEDTAVYFCTRSYPDYSATASIWGPGTTVTVSS VL: DIQVTQSPSSLSASVGDRVTITCQASENIANALAWYQQKPGKPPKLLIYGASNLASGVPSRFSGSGSGTDFTFTISSLQPEDIATYYCQQAYYGNSFVEGTFGGGTKVEIKR is 1.7
